# Measurement Notes: BRlogD chromatographic lipophilicity (octanol/water surrogate)
Measured Property: chromatographic logD
Numbers only.

Value of measured chromatographic logD for the entry N#Cc1ccc(O[C@H]2CC[C@H](NC(=O)c3ccc(N4CCC(CN5CCN(c6cc7c(cc6F)C(=O)N(C6CCC(=O)NC6=O)C7=O)CC5)CC4)nn3)CC2)cc1Cl (stereo partly shown) [ARV-110, bavdegalutamide] : 4.25
